subjectOfTest: T1, mTfR-1 S231A on Expi293 cells (mouse, UniProt Q62351 1-763)
T1 construct: whole, on cells
assayDetails: FACS, transfected Expi293 cells
Provide the recorded % double-positive cells vs WT for the entries that follow.
Write the value in % as a bare number.

query: Any idea what % double-positive cells vs WT was measured for Clone C VNAR-hFc fusion (Fc fusion, not shown: a dimerising Fc or GST, bivalent VNAR-Fc; also called Clone C-hFc) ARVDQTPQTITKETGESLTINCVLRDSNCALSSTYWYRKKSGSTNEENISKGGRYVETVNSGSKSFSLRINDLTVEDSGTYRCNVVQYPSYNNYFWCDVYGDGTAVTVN ?
result: 283

query: // repeat for 8D3 antibody (anti-mouse TfR-1 control; 8D3-hFc formatted antibody) (antibody, V domains shown) VH: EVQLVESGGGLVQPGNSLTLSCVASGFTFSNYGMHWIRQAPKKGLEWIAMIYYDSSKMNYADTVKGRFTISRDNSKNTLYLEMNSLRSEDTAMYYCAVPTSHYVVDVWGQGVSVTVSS VL: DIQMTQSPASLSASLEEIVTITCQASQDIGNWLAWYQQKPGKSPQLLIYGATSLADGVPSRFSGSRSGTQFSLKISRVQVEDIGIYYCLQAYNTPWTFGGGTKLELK and report
result: 65

query: Similarly, Clone C variant 13 VNAR-hFc (Fc fusion, not shown: a dimerising Fc or GST, also called Clone C v13; Clone C var; 13) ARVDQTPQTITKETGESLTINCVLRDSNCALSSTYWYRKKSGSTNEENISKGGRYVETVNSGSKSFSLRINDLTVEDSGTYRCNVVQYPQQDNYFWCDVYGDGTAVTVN ?
result: 101

query: Another: Clone C variant 18 VNAR-hFc (Fc fusion, not shown: a dimerising Fc or GST, also called Clone C v18; Clone C var; 18) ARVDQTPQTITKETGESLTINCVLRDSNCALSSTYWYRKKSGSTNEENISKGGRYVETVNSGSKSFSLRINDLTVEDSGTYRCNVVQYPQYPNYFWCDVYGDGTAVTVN
result: 173
